Catalogue of LogP values
Test: Log P by HPLC on reversed phase columns (EEC directive 79/831 Annex V.A8)
Format: physicochemical
Settings: method marked [a]

As a guide, the following entries are already answered.
In [3]: df
Out[3]:
                                   molecule  value_kind  measured_value
0  CCOC(=O)C(Cc1ccccc1)NC(=O)c1sc(Cl)c(C#N)c1Cl (stereo not shown)        LogP        4.05^[a]
1  COC(=O)C(NC(=O)c1sc(C#N)c(Cl)c1Br)C1CC1 (stereo not shown)        LogP        3.07^[a]
2    COC(=O)C(C)(C)NC(=O)c1sc(C#N)c(Cl)c1Br        LogP        2.90^[a]

Any idea what its LogP is? The molecule is COC(=O)CNC(=O)c1sc(F)c(Cl)c1C 2.23^[a]

What about this molecule? COC(=O)C(NC(=O)c1sc(Br)c(Cl)c1C)C(=O)OC 3.04^[a]

###

# LogP per record follows
Assay: Log P by HPLC on reversed phase columns (EEC directive 79/831 Annex V.A8)
Type: physicochemical
Settings: method [a]; compounds of formula (I), Table 1.1

What LogP value was documented for this molecule, COC(=O)C(NC(=O)c1sc(Br)c(Cl)c1C)C1CC1 (stereo not drawn) ? 3.35^[a]

Try the molecule CCSC(=O)C(NC(=O)c1sc(Cl)c(Br)c1C)C(C)C (racemic) 4.74^[a]

CCOC(=O)C1(NC(=O)c2sc(Br)c(I)c2C)CC1 , same question. 3.25^[a]

How about CCOC(=O)C(Cc1ccccc1)NC(=O)c1sc(Cl)c(Br)c1C (stereo not drawn) ? 4.51^[a]

Also need CCOC(=O)C(CC(C)C)NC(=O)c1sc(Br)c(Cl)c1C (stereo not drawn) , thanks. 4.53^[a]

###

Experiment: Log P by HPLC on reversed phase columns (EEC directive 79/831 Annex V.A8)
Type: physicochemical
Details: method marker [a] given with each value; Table 1.1, compounds of formula (I)
Quick list: LogP per entry.

In [3]: df
Out[3]:
                                   compound  value_kind  measured_value
0  O=C(O)C(NC(=S)c1sc(Br)c(Br)c1F)C1CC1 (stereo not shown)        LogP        3.45^[a]
1  CC(C)C(C#N)NC(=O)c1sc(Br)c(Br)c1F (stereo not shown)        LogP        3.54^[a]
2  CCOC(=O)C1(NC(=O)c2sc(Cl)c(Cl)c2C#N)CSC1        LogP        3.05^[a]
3  Cc1c(C(=O)NC2(C(=O)OCc3ccccc3)CC2)sc(C#N)c1Br        LogP        3.39^[a]
4         N#CCOC(=O)CNC(=O)c1sc(Br)c(Br)c1F        LogP        2.67^[a]

Requested field: LogP. Item: COC(=O)[C@H](CCC(N)=O)NC(=O)c1sc(Br)c(Br)c1F 2.05^[a]

Param item: CCOC(=O)C(NC(=O)c1sc(Br)c(Br)c1Cl)C1CC1 (stereo not shown) 4.34^[a]

Same lookup for COC(=O)C(C)(Cc1ccccc1)NC(=O)c1sc(Cl)c(Cl)c1Br (racemic) , please. 5.15^[a]

// next record COC(=O)[C@H](CCC(N)=O)NC(=O)c1sc(Cl)c(Cl)c1Br 2.25^[a]

Repeat with Cc1c(C(=O)NC2(C(=O)OC(C)(C)C)CC2)sc(C#N)c1Br 3.28^[a]

###

Test: Log P by HPLC on reversed phase columns (EEC directive 79/831 Annex V.A8)
Assay type: physicochemical
Conditions: LogP method [a]; compounds of formula (I), Table 1.1
value kind: LogP

Use these answered entries as a reference point.
In [3]: df
Out[3]:
                                   molecule  measured_value
0  COC(=O)C(C1CC1)N(O)C(=O)c1sc(Br)c(Br)c1F (stereo not shown)        2.77^[a]
1           CCOC(=O)CCNC(=O)c1cc(Br)c(Cl)s1        2.80^[a]
2      CCOC(=O)C1(NC(=O)c2sc(C)c(Br)c2F)CC1        2.80^[a]
3  CCCOC(=O)C1(NC(=O)c2sc(Br)c(C(F)F)c2Br)CC1        3.42^[a]
4  COC(=O)[C@H](CSC(=O)N(C)C)NC(=O)c1sc(Cl)c(Cl)c1Br        3.58^[a]
5  COC(=O)C(NC(=O)c1cc(C#N)c(Br)s1)C1CC1 (stereo not shown)        2.50^[a]
6  CCOC(=O)C(Cc1ccccc1)NC(=O)c1sc(C(F)F)c(Br)c1Br (stereo not shown)        4.48^[a]
7          CCOC(=O)CNC(=S)c1sc(Cl)c(Br)c1Cl        4.59^[a]

What does the data say about its LogP? Entry: CCOC(=O)C1(NC(=O)c2sc(C(F)F)c(Br)c2Br)CC1 3.14^[a]

Try CSCCC(NC(=O)c1sc(Br)c(Br)c1F)C(=O)O (stereo not shown) next. 2.75^[a]

###

Experiment: Log P by HPLC on reversed phase columns (EEC directive 79/831 Annex V.A8)
Format: physicochemical
Settings: method [a]
Method: In the above tables, measurement of Log P values was performed according to EEC directive 79/831 Annex V.A8 by HPLC (High Performance Liquid Chromatography) on reversed phase columns with the following methods: • ^[a] […] Lambda-max-values were determined using UV-spectra from 200 nm to 400 nm and the peak values of the chromatographic signals.
As shown below, each of these compounds has a reported LogP value.

Worked set:
In [3]: df
Out[3]:
                                   compound  measured_value
0   CCOC(=O)C1(NC(=O)c2sc(C#N)c(Cl)c2Cl)CC1        2.76^[a]
1  CCOC(=O)C(CCSC)NC(=O)c1cc(Br)c(Cl)s1 (stereo not drawn)        3.65^[a]
2  CCOC(=O)C(NC(=O)c1sc(Cl)c(Br)c1Br)C(C)C (stereo not drawn)        4.89^[a]

In the following, a different compound is considered.
Data request, read-out LogP, for CCOC(=O)[C@@H](Cc1ccccc1)NC(=O)c1sc(Br)c(Br)c1F 4.55^[a]

###

Experiment: Log P by HPLC on reversed phase columns (EEC directive 79/831 Annex V.A8)
Format: physicochemical
Conditions: method [a]
value kind: LogP

Solved entries (count: 4):
>>> print(df.to_string())
                                   compound  measured_value
0   CCOC(=O)C1(NC(=O)c2sc(Br)c(Cl)c2Cl)CCC1        4.26^[a]
1    COC(=O)C(C)(C)NC(=O)c1sc(Cl)c(Br)c1C#N        2.77^[a]
2              O=C(O)CNC(=O)c1cc(Cl)c(Br)s1        1.79^[a]
3  COC(=O)C(NC(=O)c1cc(Br)c(Cl)s1)C1CC1 (stereo not shown)        3.07^[a]

Quick check: LogP of COC(=O)CNC(=S)c1sc(C#N)c(Br)c1C ? 2.92^[a]

How about CCOC(=O)C(C)NC(=O)c1sc(C#N)c(Br)c1C (stereo not shown) ? 2.80^[a]

Next record, please: CCOC(=O)CNC(=O)c1sc(Cl)c(Br)c1C#N 2.56^[a]

Try this compound too: CCOC(=O)C(C#N)NC(=O)c1sc(Br)c(Br)c1F (stereo not shown) 3.07^[a]

Proceed to COC(=O)C(CC(F)F)NC(=O)c1sc(Br)c(Cl)c1Cl (stereo not shown) 3.60^[a]

Try this compound too: CCOC(=O)C(NC(=O)c1sc(Cl)c(Br)c1Cl)C(C)C (stereo not shown) 4.97^[a]

Thanks! And COC(=O)C1(NC(=O)c2sc(Br)c(Br)c2C#N)CCC1 ? 2.87^[a]

Next compound: Cc1c(C(=O)NCC(=O)O)sc(C#N)c1Br 1.61^[a]

Next compound: N#CCNC(=O)c1sc(Br)c(Cl)c1Cl 2.67^[a]

What about this compound? C=CCOC(=O)C1(NC(=O)c2sc(C#N)c(Cl)c2Cl)CC1 3.00^[a]

###

Assay: Log P by HPLC on reversed phase columns (EEC directive 79/831 Annex V.A8)
Format: physicochemical
Details: LogP method [a]; compounds of formula (I), Table 1.1
value kind: LogP

For orientation, consider the following solved cases.
>>> print(df.to_string())
                                   molecule  value_kind  measured_value
0  CCOC(=O)C1(NC(=O)c2sc(Br)c(C(F)F)c2Br)CCC1        LogP        3.66^[a]
1  COC(=O)C(CC(F)F)NC(=O)c1cc(Br)c(Cl)s1 (centres unmarked)        LogP        3.07^[a]
2     COC(=O)C1(NC(=O)c2sc(Cl)c(Br)c2Br)CC1        LogP        3.08^[a]
3            CCOC(=O)CNC(=O)c1cc(Br)c(Cl)s1        LogP        2.63^[a]
4       CCOC(=O)CN(O)C(=O)c1sc(Cl)c(Cl)c1Br        LogP        2.95^[a]

Quick one: LogP of CCOC(=O)CNC(=O)c1sc(Cl)c(Cl)c1C(F)F ? 2.97^[a]

Proceed to CCOC(=O)C(NC(=O)c1cc(C#N)c(Br)s1)C(C)C (centres unmarked) 3.22^[a]

Another molecule to check: CCOC(=O)CCNC(=O)c1cc(Cl)c(Br)s1 2.77^[a]

How about this molecule: CCOC(=O)C(C)NC(=O)c1sc(Cl)c(Br)c1Br (centres unmarked) 3.91^[a]

Moving on to the next molecule: CCOC(=O)C(NC(=O)c1sc(Br)c(Br)c1F)C1CC1 (centres unmarked) 3.98^[a]

Quick one: COC(=O)CNC(=O)c1sc(Br)c(Br)c1Cl 2.92^[a]

Moving on to NC(=O)C1(NC(=O)C2(NC(=O)c3cc(I)c(I)s3)CC2)CC1 1.88^[a]
